- ASSAY TEXT: 12mer Tm study
- Assay type: binding
- EXPERIMENTAL CONTEXT: all linkages phosphodiester
[αh] = substituted alpha-L-bicyclic nucleoside, publication subscript αh; [αj] = substituted alpha-L-bicyclic nucleoside, publication subscript αj; [αl] = substituted alpha-L-bicyclic nucleoside, publication subscript αl; [αm] = substituted alpha-L-bicyclic nucleoside, publication subscript αm; d = 2'-deoxy (DNA)
Class y: Tm (° C.) at least 50 °C. Class n: Tm (° C.) below 50 °C.

Here are 4 substances together with their reported answers.
[
  {
    "SUBSTANCE": "07/454308: 12mer GCGTTUαmTαmTTGCT, all linkages phosphodiester (GCGTTUTTTGCT; sugars from the 5' end d5 [αm]2 d5, all phosphodiester, methylation of C not given here)",
    "CLASSIFICATION": "y"
  },
  {
    "SUBSTANCE": "07/449244: 12mer GCGTTUαjTTTGCT, all linkages phosphodiester (GCGTTUTTTGCT; sugars from the 5' end d5 [αj]1 d6, all phosphodiester, methylation of C not given here)",
    "CLASSIFICATION": "n"
  },
  {
    "SUBSTANCE": "07/449247: 12mer GCGTTUαhTαhTTGCT, all linkages phosphodiester (GCGTTUTTTGCT; sugars from the 5' end d5 [αh]2 d5, all phosphodiester, methylation of C not given here)",
    "CLASSIFICATION": "y"
  },
  {
    "SUBSTANCE": "07/454306: 12mer GCGTTUαlTαlTTGCT, all linkages phosphodiester (GCGTTUTTTGCT; sugars from the 5' end d5 [αl]2 d5, all phosphodiester, methylation of C not given here) [reference compound]",
    "CLASSIFICATION": "n"
  }
]

Now examine the next entry.
Req: Is the recorded value of Tm (° C.) equal to or greater than 50 °C for this substance? 07/438704: 12mer GCGTTUTTTGCT, all 2′-deoxyribonucleosides, all linkages phosphodiester (DNA, all phosphodiester, methylation of C not given here) [reference compound]
Resp: n

* * *

- ASSAY TEXT: 12mer Tm study
- Type: binding
- EXPERIMENTAL CONTEXT: change in Tm per modification
[αh] = substituted alpha-L-bicyclic nucleoside, publication subscript αh; [αj] = substituted alpha-L-bicyclic nucleoside, publication subscript αj; [αl] = substituted alpha-L-bicyclic nucleoside, publication subscript αl; [αm] = substituted alpha-L-bicyclic nucleoside, publication subscript αm; [αg] = code of the source, not defined here; d = 2'-deoxy (DNA)
PARAMETER: ΔTm/mod (° C.)

Study these solved cases before continuing.
[
  {
    "SUBSTANCE": "07/438711: 12mer GCGTTUαlTTTGCT, all linkages phosphodiester (GCGTTUTTTGCT; sugars from the 5' end d5 [αl]1 d6, all phosphodiester, methylation of C not given here) [reference compound]",
    "ΔTm/mod (° C.)": "+4.6 °C"
  },
  {
    "SUBSTANCE": "07/454307: 12mer GCGTTUαmTTTGCT, all linkages phosphodiester (GCGTTUTTTGCT; sugars from the 5' end d5 [αm]1 d6, all phosphodiester, methylation of C not given here)",
    "ΔTm/mod (° C.)": "+5.5 °C"
  },
  {
    "SUBSTANCE": "07/449245: 12mer GCGTTUαjTαjTTGCT, all linkages phosphodiester (GCGTTUTTTGCT; sugars from the 5' end d5 [αj]2 d5, all phosphodiester, methylation of C not given here)",
    "ΔTm/mod (° C.)": "+1.0 °C"
  },
  {
    "SUBSTANCE": "07/449247: 12mer GCGTTUαhTαhTTGCT, all linkages phosphodiester (GCGTTUTTTGCT; sugars from the 5' end d5 [αh]2 d5, all phosphodiester, methylation of C not given here)",
    "ΔTm/mod (° C.)": "+4.1 °C"
  },
  {
    "SUBSTANCE": "07/454309: 12mer GCGTTUαgTTTGCT, all linkages phosphodiester (GCGTTUTTTGCT; sugars from the 5' end d5 [αg]1 d6, all phosphodiester, methylation of C not given here)",
    "ΔTm/mod (° C.)": "+4.2 °C"
  },
  {
    "SUBSTANCE": "07/438704: 12mer GCGTTUTTTGCT, all 2′-deoxyribonucleosides, all linkages phosphodiester (DNA, all phosphodiester, methylation of C not given here) [reference compound]",
    "ΔTm/mod (° C.)": "+0.0 °C"
  }
]

Req: Give a short answer stating reported ΔTm/mod (° C.) for 07/449244: 12mer GCGTTUαjTTTGCT, all linkages phosphodiester (GCGTTUTTTGCT; sugars from the 5' end d5 [αj]1 d6, all phosphodiester, methylation of C not given here) .
Resp: +1.1 °C

Req: Give recorded ΔTm/mod (° C.). 07/454306: 12mer GCGTTUαlTαlTTGCT, all linkages phosphodiester (GCGTTUTTTGCT; sugars from the 5' end d5 [αl]2 d5, all phosphodiester, methylation of C not given here) [reference compound]
Resp: +4.6 °C

src = patent US8501805B2
